ASSAYED TARGET: human orexin-1 receptor (Homo sapiens (Human))
Sequence (O43613 whole entry): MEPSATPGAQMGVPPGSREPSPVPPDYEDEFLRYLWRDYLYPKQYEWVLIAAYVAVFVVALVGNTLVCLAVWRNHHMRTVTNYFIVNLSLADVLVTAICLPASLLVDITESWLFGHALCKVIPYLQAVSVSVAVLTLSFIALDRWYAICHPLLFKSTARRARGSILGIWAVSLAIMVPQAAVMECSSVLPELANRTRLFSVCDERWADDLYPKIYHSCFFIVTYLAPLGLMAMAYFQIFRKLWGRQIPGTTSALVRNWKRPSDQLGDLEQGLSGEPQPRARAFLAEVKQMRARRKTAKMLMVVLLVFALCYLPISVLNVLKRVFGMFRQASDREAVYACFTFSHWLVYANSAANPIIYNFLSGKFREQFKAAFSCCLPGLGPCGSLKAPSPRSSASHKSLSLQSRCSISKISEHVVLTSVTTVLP
TEST METHOD NOTES: In vitro assay: intracellular calcium measurements (FLIPR), antagonistic activity
CONDITION LABEL: CHO cells expressing human orexin-1 receptor, orexin-A agonist, geometric mean, read-out: IC50 Ox1
Method: In Vitro Assay: Intracellular Calcium Measurements: […] Within the Fluorescent Imaging Plate Reader (FLIPR Tetra, Molecular Devices), antagonists are added to the plate in a volume of 10 μl/well, incubated for 120 min and finally 10 μl/well of agonist is added. […] The calculated IC50 values may fluctuate depending on the daily cellular assay performance. […]
VALUE TYPE: pIC50
By convention, pIC50 is the negative base-10 log of a molar concentration.

// pIC50 lookup, molecule = C=C1CC(c2nc3c(OC)ccc(OC)c3[nH]2)N(C(=O)c2nc(C3CC3)sc2-c2cccc(C)c2)C1 (stereo not shown) [Ex. 6.98] , result: 8.40

Record CCn1c([C@]2(C)CCCN2C(=O)c2cc(C)ccc2-n2nccn2)nc2c(C)c(Cl)ccc21 [Ex. 7.21] . Reported pIC50: 9.00

The measured pIC50 associated with COc1ccc2nc([C@@H]3CCCN3C(=O)c3ccccc3-c3ccc(C)c(C)c3)[nH]c2c1 [Ex. 1.26] reads 6.90

The recorded pIC50 for entry COc1ccc(OC)c2[nH]c([C@]3(C)CCCN3C(=O)c3cc(C)ccc3-n3nccn3)nc12 [Ex. 5.31] equals 7.36

###

Exercise: state measured pIC50 for each of the compounds provided.
ASSAYED TARGET: human orexin-1 receptor (Homo sapiens (Human))
TEST METHOD NOTES: In vitro assay: intracellular calcium measurements (FLIPR), antagonistic activity
CONDITION LABEL: CHO cells expressing human orexin-1 receptor, orexin-A agonist, geometric mean, read-out: IC50 Ox1
Lab note — pIC50 values are minus log10 of concentrations in M.

The reported pIC50 of the compound Cc1nc(C(=O)N2CCCC2c2nc3cc(F)c(Br)cc3[nH]2)c(-c2ccccc2)s1 (stereo not shown) [Ex. 1.136] was 7.09

response.value for COc1cccc(-c2nc(C)ncc2C(=O)N2CCC[C@H]2c2nc3ccc(SC)cc3[nH]2)c1 [Ex. 1.56] (field: pIC50) = 6.60

Data point: Cc1ccc(-c2ccc(C)cc2C(=O)N2CCC[C@@]2(C)c2nc3cc(C(F)(F)F)c(Cl)cc3[nH]2)cc1 [Ex. 5.154] ; pIC50 = 7.23

// pIC50 lookup, compound = Cc1nc(C(=O)N2CCC[C@@]2(C)c2nc3c(C)c(C)c(Br)cc3[nH]2)c(-c2ccc(F)cc2)s1 [Ex. 5.276] , result: 8.52

Lab book: pIC50 of C=C1C[C@@H](c2nc3cc(OC)ccc3[nH]2)N(C(=O)c2ccccc2-c2nc(C)no2)C1 [Ex. 6.20] noted as 5.76

GET /value?item= COc1cccc(-c2sc(C)nc2C(=O)N2CCC[C@@]2(C)c2nc3c(C)c(C)c(Br)cc3[nH]2)c1 [Ex. 5.275] &field=pIC50 returns 8.30

Input Cc1cc2[nH]c([C@@H]3[C@@H](C)CCN3C(=O)c3cc(F)ccc3-c3ccccc3)nc2cc1Cl [Ex. 4.105] . Output pIC50: 8.30
